This section presents compounds with their documented IC50 values.
molecular target: Cyclic GMP-AMP synthase (Homo sapiens, UniProt Q8N884); test: Inhibition of recombinant His6-SUMO tagged human CGAS expressed in Escherichia coli BL21/pLys cells incubated for 20 mins by Kinase Glo chemiluminescence assay
Sequence (Q8N884 whole entry): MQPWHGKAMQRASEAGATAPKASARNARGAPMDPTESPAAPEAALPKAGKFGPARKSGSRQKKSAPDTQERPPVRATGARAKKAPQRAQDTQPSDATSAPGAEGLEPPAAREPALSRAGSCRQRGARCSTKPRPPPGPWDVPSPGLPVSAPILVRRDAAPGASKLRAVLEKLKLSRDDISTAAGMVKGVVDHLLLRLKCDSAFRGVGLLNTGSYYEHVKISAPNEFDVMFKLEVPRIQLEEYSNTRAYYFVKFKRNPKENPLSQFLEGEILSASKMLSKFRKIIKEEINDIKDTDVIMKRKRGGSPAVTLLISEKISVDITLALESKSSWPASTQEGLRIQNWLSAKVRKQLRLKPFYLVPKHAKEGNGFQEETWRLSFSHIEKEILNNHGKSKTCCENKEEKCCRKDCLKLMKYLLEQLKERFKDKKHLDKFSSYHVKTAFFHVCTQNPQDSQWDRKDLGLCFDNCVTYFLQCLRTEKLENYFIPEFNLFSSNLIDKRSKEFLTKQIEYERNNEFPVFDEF
MEASUREMENT NAME: IC50

[[record]]
compound = "CN1C(=O)S/C(=C\\c2cc(OCC(=O)Nc3nncs3)c(O)c(F)c2Br)C1=O"
endpoint_result = "500 to 10000 nM"

[[record]]
compound = "CN1C(=O)S/C(=C\\c2cc(OCc3cnc(-n4ccnc4)nc3)c(O)cc2Br)C1=O"
endpoint_result = "500 to 10000 nM"

[[record]]
compound = "O=C1/C(=C/c2ccc(O)cc2Br)Sc2ncccc21"
endpoint_result = "≤ 500 nM"

[[record]]
compound = "Nc1ncc(/C=C/c2cc(/C=C3\\Sc4ncccc4C3=O)c(Br)cc2O)cn1"
endpoint_result = "≤ 500 nM"

[[record]]
compound = "Cc1cnccc1/C=C1\\SC(=O)NC1=O"
endpoint_result = "≤ 500 nM"

[[record]]
compound = "O=C1NC(=O)/C(=C2\\CCCc3cnccc32)S1"
endpoint_result = "≤ 500 nM"

[[record]]
compound = "CN1C(=O)S/C(=C\\c2cc(OCc3cnc(N4CCOCC4)nc3)c(O)cc2Br)C1=O"
endpoint_result = "≥ 10000 nM"

[[record]]
compound = "CC(C)c1cc(/C=C2\\Sc3ncccc3C2=O)c(Br)cc1O"
endpoint_result = "≥ 10000 nM"

[[record]]
compound = "CN1C(=O)S/C(=C\\c2cc(OCCc3cnc(N)nc3)c(O)c(F)c2Br)C1=O"
endpoint_result = "≤ 500 nM"

[[record]]
compound = "CN1C(=O)S/C(=C\\c2cc(OCc3cccnc3)c(O)cc2Br)C1=O"
endpoint_result = "≤ 500 nM"

[[record]]
compound = "CC(C)n1ccc(COc2cc(/C=C3\\SC(=O)N(C)C3=O)c(Br)cc2O)cc1=O"
endpoint_result = "≥ 10000 nM"

[[record]]
compound = "Cc1nc(N)ncc1C(C)Oc1cc(/C=C2\\Sc3ncccc3C2=O)c(Br)c(F)c1O (stereo not given)"
endpoint_result = "≤ 500 nM"

[[record]]
compound = "CC(C)c1cc(/C=C2\\SC(=O)N(C)C2=O)c(Br)cc1O"
endpoint_result = "≥ 10000 nM"

[[record]]
compound = "CN1C(=O)S/C(=C\\c2cc(OCc3cnc(N)nc3C3CC3)c(O)cc2Br)C1=O"
endpoint_result = "≤ 500 nM"

[[record]]
compound = "CN1C(=O)S/C(=C\\c2cc(OC(F)(F)F)c(Oc3cnc(N)s3)cc2Br)C1=O"
endpoint_result = "≥ 10000 nM"

[[record]]
compound = "CSc1ncc(COc2cc(/C=C3\\SC(=O)N(C)C3=O)c(Br)cc2O)c(SC)n1"
endpoint_result = "≥ 10000 nM"

[[record]]
compound = "CN1C(=O)S/C(=C\\c2cc(OCc3cnc(NCCO)nc3)c(O)c(F)c2Br)C1=O"
endpoint_result = "≤ 500 nM"

[[record]]
compound = "[2H]C([2H])(Oc1cc(/C=C2\\SC(=O)N(C)C2=O)c(Br)cc1O)c1cnc(N)nc1"
endpoint_result = "≤ 500 nM"

[[record]]
compound = "CN1C(=O)S/C(=C\\c2cc(Oc3ccnc(N)c3)c(O)cc2Br)C1=O"
endpoint_result = "≥ 10000 nM"

[[record]]
compound = "CN1C(=O)S/C(=C\\c2cc3nn[nH]c3cc2Br)C1=O"
endpoint_result = "≥ 10000 nM"

[[record]]
compound = "CN1C(=O)S/C(=C\\c2cc(OCc3cncc(NC(=O)c4ccncc4)c3)c(O)cc2Br)C1=O"
endpoint_result = "≥ 10000 nM"

[[record]]
compound = "Cc1nc([S+](C)[O-])nc(C)c1COc1cc(/C=C2\\SC(=O)N(C)C2=O)c(Br)cc1O (stereo not given)"
endpoint_result = "≥ 10000 nM"

[[record]]
compound = "CN1C(=O)S/C(=C\\c2cc(OCC(F)(F)c3cnc(N)nc3)c(O)c(F)c2Br)C1=O"
endpoint_result = "500 to 10000 nM"

[[record]]
compound = "CN1C(=O)S/C(=C\\c2cc(OCc3cc[nH]c(=O)c3)c(O)cc2Br)C1=O"
endpoint_result = "500 to 10000 nM"

[[record]]
compound = "CC(Oc1cc(/C=C2\\Sc3ncccc3C2=O)c(Br)c(F)c1O)c1cnc(N)nc1 (stereo not given)"
endpoint_result = "≤ 500 nM"

[[record]]
compound = "COc1cccc(Oc2cc(/C=C3\\SC(=O)N(C)C3=O)c(Br)cc2O)c1N"
endpoint_result = "≥ 10000 nM"

[[record]]
compound = "CN1C(=O)S/C(=C\\c2cc(OCc3cnc(-n4cccn4)nc3)c(O)cc2Br)C1=O"
endpoint_result = "500 to 10000 nM"

[[record]]
compound = "CN1C(=O)S/C(=C\\c2cc(OCC3CCN(C(=O)c4cccnc4)CC3)c(O)cc2Br)C1=O"
endpoint_result = "500 to 10000 nM"

[[record]]
compound = "CC1C(=O)S/C(=C\\c2cc(OC(C)c3cnc(Cl)nc3)c(O)c(F)c2Br)C1=O (stereo not given)"
endpoint_result = "≤ 500 nM"

[[record]]
compound = "CN1C(=O)S/C(=C\\c2cc(OCc3cncc(NC(=O)c4cccnc4)c3)c(O)cc2Br)C1=O"
endpoint_result = "≥ 10000 nM"

[[record]]
compound = "CNc1ncc(COc2cc(/C=C3\\SC(=O)N(C)C3=O)c(Br)c(F)c2O)cn1"
endpoint_result = "≤ 500 nM"

[[record]]
compound = "CN1C(=O)S/C(=C\\c2cc(OCc3ccc(N)nc3)c(O)cc2Br)C1=O"
endpoint_result = "≥ 10000 nM"

[[record]]
compound = "CN1C(=O)S/C(=C\\c2cc(OCCc3cnc(N)nc3N)c(O)c(F)c2Br)C1=O"
endpoint_result = "≤ 500 nM"

[[record]]
compound = "CN1C(=O)S/C(=C\\c2cc3cc[nH]c3c(F)c2Br)C1=O"
endpoint_result = "500 to 10000 nM"

[[record]]
compound = "CN1C(=O)S/C(=C\\c2cc(CCc3ccc([S+](C)[O-])cc3)c(O)cc2Br)C1=O (stereo not given)"
endpoint_result = "≥ 10000 nM"

[[record]]
compound = "O=C1/C(=C/c2cc(CC(F)(F)F)c(O)cc2Br)Sc2ncccc21"
endpoint_result = "≤ 500 nM"

[[record]]
compound = "O=C1/C(=C/c2cc3nn[nH]c3cc2Br)Sc2ncccc21"
endpoint_result = "≤ 500 nM"

[[record]]
compound = "O=C1/C(=C/c2cc(OCc3cnc(NCc4cccnc4)nc3)c(O)cc2Br)Sc2ncccc21"
endpoint_result = "≤ 500 nM"

[[record]]
compound = "Cc1nc(N)ncc1COc1cc(/C=C2\\SC(=O)N(C)C2=O)c(Br)cc1O"
endpoint_result = "≤ 500 nM"

[[record]]
compound = "CN1C(=O)S/C(=C\\c2cc(OCc3cnc(-c4ccccn4)nc3)c(O)cc2Br)C1=O"
endpoint_result = "500 to 10000 nM"


====

This section presents compounds with their documented pIC50 values.
target: Cyclic GMP-AMP synthase (Homo sapiens); test: Inhibition of recombinant His6-SUMO tagged human CGAS expressed in Escherichia coli BL21/pLys cells incubated for 20 mins by Kinase Glo chemiluminescence assay
pIC50: −log10 of the molar value.
MEASUREMENT NAME: pIC50

[[record]]
compound = "CN1C(=O)S/C(=C\\c2cc(OCc3cnc(N)nc3)c(Oc3cnc(N)s3)cc2Br)C1=O"
measurement_name = "pIC50"
endpoint_result = "5.00 to 6.30"

[[record]]
compound = "CN1C(=O)S/C(=C\\c2cc(OCc3ccc(=O)[nH]c3)c(O)cc2Br)C1=O"
measurement_name = "pIC50"
endpoint_result = "5.00 to 6.30"

[[record]]
compound = "CN1C(=O)S/C(=C\\c2cc(OCc3cnc(N(C)C)nc3)c(O)cc2Br)C1=O"
measurement_name = "pIC50"
endpoint_result = "≤ 5.00"

[[record]]
compound = "COc1cc(/C=C2\\SC(=O)N(C)C2=O)c(Br)cc1OCc1ccncc1"
measurement_name = "pIC50"
endpoint_result = "≤ 5.00"

[[record]]
compound = "CN1C(=O)S/C(=C\\c2cc(Oc3ccc(-c4ccncc4)cc3)c(O)cc2Br)C1=O"
measurement_name = "pIC50"
endpoint_result = "≤ 5.00"

[[record]]
compound = "CN1C(=O)S/C(=C\\c2cc(OCc3cnc(N4CCCC4)nc3)c(O)cc2Br)C1=O"
measurement_name = "pIC50"
endpoint_result = "≤ 5.00"

[[record]]
compound = "CN1C(=O)S/C(=C\\c2cc(OCc3cnc4ccccc4c3)c(O)cc2Br)C1=O"
measurement_name = "pIC50"
endpoint_result = "≤ 5.00"

[[record]]
compound = "CN1C(=O)S/C(=C\\c2cc(O)c(O)cc2F)C1=O"
measurement_name = "pIC50"
endpoint_result = "≤ 5.00"

[[record]]
compound = "CN1C(=O)S/C(=C\\c2cc(CCc3cnc(N)nc3)c(O)cc2Br)C1=O"
measurement_name = "pIC50"
endpoint_result = "5.00 to 6.30"

[[record]]
compound = "CC(Oc1cc(/C=C2\\Sc3ncccc3C2=O)c(Br)cc1O)c1cnc(NCCO)nc1 (stereo not given)"
measurement_name = "pIC50"
endpoint_result = "≥ 6.30"


FYI, the data here is from ChEMBL document CHEMBL4418308.
